These data points were gathered from the supplement of paper PMC9732359.

Known protein stability index of a selection of sequences
experiment: protein stability index of a GFP-peptide fusion (yeast GPS) (PSI 1-4); higher = more stable; sorted into four equal gates, so the index is relative within each strain; settings: ubr1∆
Note: the reply should be a number with no unit written.

Record excerpt, results attached:
{"columns": ["Chain Sequence", "protein stability index"],
 "data": [
  ["NVSSNIVKNAEQHNLVK [RPS20]", 3.07],
  ["NGKIWVKCEELSNTLAC [RRP40]", 3.6],
  ["DEAKEKQLVEKAELRLA [ECM29]", 3.27],
  ["GIKPPKGVLLYGPPGTG [RPT4]", 2.01],
  ["ILSTTLDPTDDEGHVLK [SIN4]", 3],
  ["EVAVPDRVAKVLTYPEK [RPO31]", 3.23],
  ["ANLEDIIFEIEKPLVVP [RRP6]", 2.03],
  ["ERVRLRPEQLSNIIHDE [SNF6]", 1.99]
]}

Q) Given the entry HGGGNHQHIGKASTISR [RPL2A] , report its measured protein stability index.
A) 3.11

Q) Can you handle VHTIIAGLDEDGKGAVY [PRE7] next?
A) 3.32

Q) Can you handle KPSSPPDVKSLVQLSTM [SIR4] next?
A) 3.26

Q) Can you handle LSTSEDVSIEELLREWL [IRR1] next?
A) 1.53

Q) Can you handle DFKNEESLSEEHASLLV [MED8] next?
A) 3.26

Q) Can you handle IAAMVAQKCGWTIPHKK [SIR2] next?
A) 2.35

Q) Can you handle TPDPSELAAKEEPAKEE [FAS2] next?
A) 2.68

Q) Can you handle LGVPRIKEIINASKVIS [RPO31] next?
A) 1.71
